# method notes: rapamycin-like changes in RPL19A-GFP expression – cell-based, S. cerevisiae, multiplex flow cytometry, primary screen (AID 1862);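 note: lower values mimic rapamycin by blocking the RPL19A rise seen in DMSO cells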
# experimental conditions: S. cerevisiae RPL19A-GFP strain, flow cytometry fluorescence, 3 h; at 10 µM; active compounds read low
Results filed as inconclusive are left out.
measurement kind: percent of DMSO control GFP (%)
Provide the reading as a plain figure in %.

Enquiry: Look up percent of DMSO control GFP for this molecule: "CS(=O)(=O)Nc1ccc([N+](=O)[O-])cc1Oc1ccccc1"
Return: 95.5

Enquiry: Look up percent of DMSO control GFP for this molecule: "COc1cc(NC(=O)COc2ccccc2)c(OC)cc1NC(C)=O"
Return: 101

Enquiry: Look up percent of DMSO control GFP for this molecule: "COc1ccc2cc(C(=O)Nc3ccc(S(N)(=O)=O)cc3)sc(=O)c2c1OC"
Return: 93.7

Enquiry: Look up percent of DMSO control GFP for this molecule: "CCSC(=O)CCCCCCCCCCCO"
Return: 101

Enquiry: Look up percent of DMSO control GFP for this molecule: "CC(C)c1cc(=O)oc2c3c4c(cc12)CCCN4CCC3"
Return: 104

Enquiry: Look up percent of DMSO control GFP for this molecule: "CN(C)CCCN1c2ccccc2Sc2ccccc21"
Return: 98.1

Enquiry: Look up percent of DMSO control GFP for this molecule: COc1ccc(CNCCC(c2ccc(F)cc2)c2ccc(OC(C)C)cc2)cc1OC (configuration not stated)
Return: 97.9

Enquiry: Look up percent of DMSO control GFP for this molecule: COc1ccc(C2CC(c3ccc([N+](=O)[O-])cc3)=NN2C(=O)c2ccccc2)cc1OC (configuration not stated)
Return: 97.1

Enquiry: Look up percent of DMSO control GFP for this molecule: Cc1ccc2c(c1C)NC(C(=O)O)C1CC=CC21 (configuration not stated)
Return: 102

Enquiry: Look up percent of DMSO control GFP for this molecule: COc1cccc(CC(=O)NCC2COc3ccccc3O2)c1OC (configuration not stated)
Return: 103

Enquiry: Look up percent of DMSO control GFP for this molecule: COc1cc(C2NCCc3c2[nH]c2ccccc32)ccc1OC(C)C (configuration not stated)
Return: 105

Enquiry: Look up percent of DMSO control GFP for this molecule: "Cc1cn([C@H]2C[C@H](N=[N+]=[N-])[C@@H](CO)O2)c(=O)[nH]c1=O"
Return: 94.2

Enquiry: Look up percent of DMSO control GFP for this molecule: "O=C(O)[C@@H](O)c1ccccc1"
Return: 102

Enquiry: Look up percent of DMSO control GFP for this molecule: "CN(C)[C@@H]1C(=O)C(C(N)=O)=C(O)[C@@]2(O)C(=O)C3=C(O)c4c(O)ccc(Cl)c4[C@@H](O)[C@H]3C[C@@H]12"
Return: 104

Enquiry: Look up percent of DMSO control GFP for this molecule: "CSc1ccc(/C=N/N2CCN(Cc3ccc(C)cc3C)CC2)cc1"
Return: 100

Enquiry: Look up percent of DMSO control GFP for this molecule: "Nc1nnc(CSCc2ccc(Cl)cc2Cl)s1"
Return: 101

Enquiry: Look up percent of DMSO control GFP for this molecule: CC(C(=O)O)c1cccc(C(=O)c2ccccc2)c1 (configuration not stated)
Return: 102

Enquiry: Look up percent of DMSO control GFP for this molecule: "O=C(CCc1ccccc1)Nc1ccccc1C(F)(F)F"
Return: 103

Enquiry: Look up percent of DMSO control GFP for this molecule: "Cc1ccc(S(=O)(=O)NC(=O)NN2CCCCCC2)cc1"
Return: 102

Enquiry: Look up percent of DMSO control GFP for this molecule: "O=C(Cc1ccccc1)NNC(=O)Cc1ccccc1"
Return: 101

Enquiry: Look up percent of DMSO control GFP for this molecule: CCCCCCC(=O)N(O)C1CC(=O)N(Cc2ccccc2)C1=O (configuration not stated)
Return: 106

Enquiry: Look up percent of DMSO control GFP for this molecule: "CC(C)=CCC/C(C)=C/CC/C(C)=C/CC/C(C)=C/CC1=C(C)C(=O)c2ccccc2C1=O"
Return: 98.2

Enquiry: Look up percent of DMSO control GFP for this molecule: "CN/C(=C/[N+](=O)[O-])NCCSCc1ccc(CN(C)C)o1"
Return: 91.7

Enquiry: Look up percent of DMSO control GFP for this molecule: COc1ccc(-c2cc(=O)oc3cc(OC(C)C(=O)O)ccc23)cc1 (configuration not stated)
Return: 107

Enquiry: Look up percent of DMSO control GFP for this molecule: COc1ccc(C2c3c(n[nH]c3C)CC(C)(O)C2C(C)=O)cc1OC (configuration not stated)
Return: 87.3

Enquiry: Look up percent of DMSO control GFP for this molecule: "O=C(CCc1c[nH]c2ccccc12)NCc1ccco1"
Return: 102

Enquiry: Look up percent of DMSO control GFP for this molecule: C[C@]12CCC3C(CC=C4C[C@@H](O)CC[C@@]43C)C1CCC2[C@]1(C)CCC(=O)O1 (some centres not stated)
Return: 102

Enquiry: Look up percent of DMSO control GFP for this molecule: "NC(=O)c1cnccn1"
Return: 101

Enquiry: Look up percent of DMSO control GFP for this molecule: "Cc1oncc1C(=O)Nc1ccc(C(F)(F)F)cc1"
Return: 95.7

Enquiry: Look up percent of DMSO control GFP for this molecule: "CCOC(=O)n1c(=O)oc2ccccc21"
Return: 97

Enquiry: Look up percent of DMSO control GFP for this molecule: Cc1cccc(-c2ncc(CN3CCN(CC(C)C)C(CCO)C3)cn2)c1 (configuration not stated)
Return: 104

Enquiry: Look up percent of DMSO control GFP for this molecule: "COc1ccc(-c2noc(-c3ccccc3-c3ccccc3)n2)cc1"
Return: 91.1

Enquiry: Look up percent of DMSO control GFP for this molecule: COc1ccc2c(c1)C=CC1(O2)N(CCO)c2ccccc2C1(C)C (configuration not stated)
Return: 98.2

Enquiry: Look up percent of DMSO control GFP for this molecule: COc1ccc(N2C(=O)C3C(C2=O)C(C(=O)c2ccccc2)N2CCCC32)cc1 (configuration not stated)
Return: 98.6

Enquiry: Look up percent of DMSO control GFP for this molecule: Cc1ccc(S(=O)(=O)NC(C(=O)Oc2cc3oc(=O)cc(C)c3cc2Cl)C(C)C)cc1 (configuration not stated)
Return: 102

Enquiry: Look up percent of DMSO control GFP for this molecule: "COc1cc(CNc2ccc(C)c(C)c2)cc(OC)c1OC"
Return: 99

Enquiry: Look up percent of DMSO control GFP for this molecule: "O=C(NCCc1c[nH]c2ccccc12)OCCSS(=O)(=O)O"
Return: 101

Enquiry: Look up percent of DMSO control GFP for this molecule: "O=C(O)CCCCCCNC(=O)c1cncc(O)c1"
Return: 104

Enquiry: Look up percent of DMSO control GFP for this molecule: "NNC(=O)c1cc(O)c(O)c(O)c1"
Return: 105

Enquiry: Look up percent of DMSO control GFP for this molecule: COc1ccc(NC(=O)CC(c2ccccc2)c2ccco2)cc1 (configuration not stated)
Return: 103

Enquiry: Look up percent of DMSO control GFP for this molecule: "COc1ccc(N2CCN(C(=S)NCc3ccccc3)CC2)cc1"
Return: 91.7

Enquiry: Look up percent of DMSO control GFP for this molecule: "COc1ccc2c(c1)[N+](C)(C)C(C)(C)C=C2C"
Return: 105

Enquiry: Look up percent of DMSO control GFP for this molecule: "CCCCCC#CCC#CCC#CCC#CCCCC(=O)O"
Return: 106

Enquiry: Look up percent of DMSO control GFP for this molecule: "COc1cc(C(=S)N(C)C)ccc1O"
Return: 107

Enquiry: Look up percent of DMSO control GFP for this molecule: "NS(=O)(=O)c1cc2c(cc1Cl)NCNS2(=O)=O"
Return: 99.7

Enquiry: Look up percent of DMSO control GFP for this molecule: CC12CN3CC(C)(CN(C1)C3c1ccc([N+](=O)[O-])o1)C2 (configuration not stated)
Return: 102

Enquiry: Look up percent of DMSO control GFP for this molecule: "O=c1oc2c(CN3CCCCC3)c(O)ccc2c2c1CCCCC2"
Return: 102
